Assay: splicing luciferase reporter signal modulators, primary screen, spliceosome inhibition project, cell-based, HEK293, splice +/- reporter (AID 1101);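 also: HEK293 cells carrying a splicing-competent luciferase reporter gene; test concentration not given here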
Details: luminescence, 24 h, higher = more signal, called active from +8 up or from −8 down
Listing: z-score of selected compounds

{"Compound": "CCOC(=O)[C@H](Cc1ccccc1)NC(=O)CCC1CC(OC(=O)NCc2cccc3ccccc23)CC2(CCCC(COC(=O)NCCc3ccccc3OC)O2)O1 (some centres undefined)", "z-score": 0.223}
{"Compound": "CCN1C(=O)[C@H]2[C@H]3[C@H](O)[C@H](O)CC(=NOC(C)CN4CCCc5nc(C)c(C)cc54)[C@@H]3CC[C@H]2C1=O (some centres undefined)", "z-score": 0.189}
{"Compound": "CCOC(=O)[C@H](Cc1ccccc1)NC(=O)CCC1CC(OC(=O)NCCc2ccc(F)cc2)CC2(CCCC(COC(=O)NCCOc3ccccc3)O2)O1 (some centres undefined)", "z-score": -0.421}
{"Compound": "C[C@@H]1CC[C@@H](C(=O)O)N[C@H]1c1cccc(N2CCOCC2)c1", "z-score": -1.02}

---

Biological target: NADPH oxidase 2 (Homo sapiens) (UniProt P04839)
Sequence (P04839 whole entry, looked up): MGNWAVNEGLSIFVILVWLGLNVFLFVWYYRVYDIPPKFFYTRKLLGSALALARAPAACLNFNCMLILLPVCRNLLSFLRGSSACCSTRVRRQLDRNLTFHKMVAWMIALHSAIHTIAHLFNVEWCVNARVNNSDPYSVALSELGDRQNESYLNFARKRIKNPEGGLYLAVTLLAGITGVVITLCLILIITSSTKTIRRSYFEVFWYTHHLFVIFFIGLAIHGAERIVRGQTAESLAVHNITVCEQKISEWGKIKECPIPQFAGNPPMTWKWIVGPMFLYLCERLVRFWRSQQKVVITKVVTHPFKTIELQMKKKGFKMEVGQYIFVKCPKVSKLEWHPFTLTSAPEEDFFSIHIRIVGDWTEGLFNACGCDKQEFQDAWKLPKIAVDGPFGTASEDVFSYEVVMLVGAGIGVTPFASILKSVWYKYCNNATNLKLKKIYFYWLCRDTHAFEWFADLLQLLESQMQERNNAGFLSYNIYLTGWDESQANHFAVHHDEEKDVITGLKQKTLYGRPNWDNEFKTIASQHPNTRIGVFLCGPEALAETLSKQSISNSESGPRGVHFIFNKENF
Experiment: NOX2-dependent H2O2 signal modulators, primary screen, NOX inhibitor project, cell-based, HEK293-NOX2, PMA-stimulated, Amplex Red fluorescence (AID 1159); also: test concentration not given here
Conditions: 45 min, higher = more signal, called active from +8 up or from −8 down
z-score: recorded values
Observed Property: z-score

{"Compound": "COc1ccc2c(c1)O[C@@H](c1cccc(C(F)(F)F)c1)[C@H](O)C2=O", "Observed Property": "z-score", "Data Value": 0.00989}
{"Compound": "C[C@@H](c1ccccc1)N1C(=O)[C@H]2[C@H]3[C@H](O)[C@H](O)CC(=NOCc4ccccc4)[C@@H]3CC[C@H]2C1=O", "Observed Property": "z-score", "Data Value": -0.666}
{"Compound": "CO[C@@H]1COC(=O)[C@@H]2CCCN2C(=O)[C@@H](C)COC(=O)CCC[C@H]1C", "Observed Property": "z-score", "Data Value": -0.634}
{"Compound": "COc1ccc(COC(=O)NN=C2C[C@@H](O)[C@@H](O)[C@@H]3[C@@H]4C(=O)N(C(C)(C)C)C(=O)[C@@H]4CC[C@@H]23)cc1", "Observed Property": "z-score", "Data Value": -0.384}
{"Compound": "COC(=O)C1=C(C)N(Cc2ccccc2)C2=C3C(=O)OCC[C@@H]3[C@@](O)(C(=O)OC)C(=O)N2[C@@H]1c1ccccc1", "Observed Property": "z-score", "Data Value": 0.0769}
{"Compound": "COc1ccc(COC(=O)NN=C2C[C@@H](O)[C@@H](O)[C@@H]3[C@@H]4C(=O)N(Cc5ccc6c(c5)OCO6)C(=O)[C@@H]4CC[C@H]23)cc1", "Observed Property": "z-score", "Data Value": -0.657}
{"Compound": "CC(=O)OC[C@H]1O[C@H](CC=NOC[C@@H](O)COCc2ccco2)C=C[C@@H]1OC(C)=O", "Observed Property": "z-score", "Data Value": -0.431}
{"Compound": "Cc1cc2c(nc1C)CCCCN2CC(O)CN1CCCc2nc(-c3ccc(Br)cc3)ccc21 (configuration not stated)", "Observed Property": "z-score", "Data Value": 1.88}
{"Compound": "CON=C(C)CCN1CCc2nc(-c3ccccc3)c(-c3ccccc3)cc2C1", "Observed Property": "z-score", "Data Value": -6.35}
{"Compound": "CCN1C(C)=C(C(=O)OC)[C@@H](c2ccccc2)N2C(=O)[C@](O)(C(=O)OC)CC(C(C)=O)=C12", "Observed Property": "z-score", "Data Value": 0.188}
{"Compound": "COC(=O)[C@H](CCSC)NC(=O)CC=C[C@@H](C)CO", "Observed Property": "z-score", "Data Value": 1.58}
{"Compound": "CCOC(=O)[C@H](Cc1ccccc1)NC(=O)CCC1CC(OC(=O)NCc2cccc3ccccc23)CC2(CCCC(COC(=O)NCC3CCCCC3)O2)O1 (some centres not stated)", "Observed Property": "z-score", "Data Value": 0.746}

---

Molecular target: Albumin (Bos taurus)
Assay: bovine serum albumin binders on microarray, profiling panel, artefact control for SMM control protein annotation, biochemical, small-molecule microarray, Alexa647 label, 635/667 nm fluorescence (AID 1118);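 also: score merges 667 nm emission intensity and signal-to-noise per printed compound spot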
Details: BSA-A647 binding, fluorescence 635 nm, higher = more signal

{"Compound": "COc1ccc(-c2cnnc(CCCn3ccnc3-c3ccccc3)n2)cc1", "composite z-score": 0.223}
{"Compound": "CCOC(=O)[C@H](Cc1ccccc1)NC(=O)CCC1CC(OC(=O)NCc2cccc3ccccc23)CC2(CCCC(COC(=O)NCCOc3ccccc3)O2)O1 (stereo partly drawn)", "composite z-score": 0.0423}
{"Compound": "CO[C@H]1C[C@@H]2C[C@H](O)CC(CC(=O)O[C@@H](C=CCC(C)C)C[C@@H]3CC[C@H](C)[C@@H](C1)O3)O2", "composite z-score": 0.603}
{"Compound": "C=C(C)C(=O)OC[C@H]1CN2[C@@H](CC[C@@H](C)[C@@H]2c2ccc(Br)cc2)C(=O)O1", "composite z-score": -0.625}
{"Compound": "CC(C)[C@H](NC(=O)OC(C)(C)C)[C@@H](O)CC(=O)C(C)(C)C", "composite z-score": -0.269}
{"Compound": "CCCNC(=O)OC[C@H]1O[C@H](CCON=C[C@@H](C)[C@H](OCc2ccccc2)C(C)C)C=C[C@@H]1Oc1ccc(OC)cc1", "composite z-score": -0.655}
{"Compound": "COC(=O)[C@@H]1CC[C@H](C)[C@@H](c2ccc(C)cc2)N1C(=O)c1ccc(C=NOC[C@@H](O)[C@H]2O[C@@H]3OC(C)(C)O[C@@H]3[C@H]2O)cc1", "composite z-score": 0.333}
{"Compound": "CC(C)=CCCC(C)=CCON=C1C[C@@H](O)[C@@H](O)[C@@H]2[C@@H]3C(=O)N([C@@H](C)c4ccccc4)C(=O)[C@@H]3CC[C@@H]12", "composite z-score": 0.0686}

---

Target: Fibroblast growth factor 2 (Homo sapiens)
Assay: FGF2 binders on small-molecule microarrays, primary screen, biochemical, small-molecule microarray, 635/667 nm fluorescence (AID 1133)
Settings: small-molecule microarray binding, FGF2, fluorescence 635/667; higher = more signal
Observed Property: composite z-score

{"Molecule": "CC(C)[C@@H](OCc1ccccc1)[C@H](C)C=NO[C@H](C)c1cn([C@@H]2COC[C@H]2O)nn1", "Target Under Test": "Fibroblast growth factor 2 (Homo sapiens)", "Observed Property": "composite z-score", "Data Value": 0.422}
{"Molecule": "CO[C@H]1COC(=O)[C@H](C)COC(=O)[C@@H](OCc2ccccc2)C=C[C@@H]1C", "Target Under Test": "Fibroblast growth factor 2 (Homo sapiens)", "Observed Property": "composite z-score", "Data Value": 0.496}
{"Molecule": "C[C@H]1CC[C@H]2C(=O)N[C@H](Cc3ccccc3)C(=O)N2[C@@H]1c1ccccc1", "Target Under Test": "Fibroblast growth factor 2 (Homo sapiens)", "Observed Property": "composite z-score", "Data Value": 0.831}
{"Molecule": "C[C@@H]1CC[C@@H](C(=O)O)N[C@H]1c1cccc(N2CCOCC2)c1", "Target Under Test": "Fibroblast growth factor 2 (Homo sapiens)", "Observed Property": "composite z-score", "Data Value": 0.652}
{"Molecule": "CC(C)CON=C1C[C@@H](O)[C@@H](O)[C@@H]2[C@@H]3C(=O)N(Cc4ccccc4)C(=O)[C@@H]3CC[C@H]12", "Target Under Test": "Fibroblast growth factor 2 (Homo sapiens)", "Observed Property": "composite z-score", "Data Value": 0.474}
{"Molecule": "C[C@H]1CC[C@@H](C(=O)O)N[C@@H]1c1cccc(N2CCCC2=O)c1", "Target Under Test": "Fibroblast growth factor 2 (Homo sapiens)", "Observed Property": "composite z-score", "Data Value": 0.229}
{"Molecule": "CC(C)=NO[C@@H](C)c1cn([C@H](CO)Cc2ccccc2)nn1", "Target Under Test": "Fibroblast growth factor 2 (Homo sapiens)", "Observed Property": "composite z-score", "Data Value": 0.239}
{"Molecule": "CC(C)(C)N1C(=O)[C@H]2[C@H]3[C@H](O)[C@H](O)CC(=NOC[C@@H](O)COCc4ccco4)[C@H]3CC[C@H]2C1=O", "Target Under Test": "Fibroblast growth factor 2 (Homo sapiens)", "Observed Property": "composite z-score", "Data Value": 0.249}
{"Molecule": "COC(=O)[C@@H]1CC[C@H](C)[C@@H](c2ccc(C)cc2)N1C(=O)c1ccc(C=NO[C@@H](C)c2cc(-c3c(C)cc(C)cc3C)no2)cc1", "Target Under Test": "Fibroblast growth factor 2 (Homo sapiens)", "Observed Property": "composite z-score", "Data Value": 0.553}
{"Molecule": "CCOC(=O)[C@H](Cc1ccccc1)NC(=O)CCC1CC(OC(=O)NCc2ccc3c(c2)OCO3)CC2(CCCC(COC(=O)NCCCN3CCCC3=O)O2)O1 (stereo partly drawn)", "Target Under Test": "Fibroblast growth factor 2 (Homo sapiens)", "Observed Property": "composite z-score", "Data Value": 0.537}
{"Molecule": "CCOC(=O)[C@H](CC(C)C)NC(=O)CCC1CC(OC(=O)NCCc2ccc(F)cc2)CC2(CCCC(COC(=O)NCc3cccc4ccccc34)O2)O1 (stereo partly drawn)", "Target Under Test": "Fibroblast growth factor 2 (Homo sapiens)", "Observed Property": "composite z-score", "Data Value": 0.634}
{"Molecule": "O=C(NCCC[N+]1=CC=NC1c1ccccc1)N1CCCc2nc(-c3ccc(Br)cc3)ccc21 (stereo not drawn)", "Target Under Test": "Fibroblast growth factor 2 (Homo sapiens)", "Observed Property": "composite z-score", "Data Value": 0.208}
{"Molecule": "CC(CCC(=O)OC[C@H]1O[C@H](C#Cc2ccccc2)C=C[C@@H]1Oc1ccc(C)cc1)=NO[C@@H](C)c1cc(-c2c(C)cc(C)cc2C)no1", "Target Under Test": "Fibroblast growth factor 2 (Homo sapiens)", "Observed Property": "composite z-score", "Data Value": -0.977}

Numbers sourced from PubChem BioAssay.
